- TARGET_UNDER_TEST: T1, soluble FGFR1c receptor protein (human, UniProt P11362 141-376)
- T1 sequence: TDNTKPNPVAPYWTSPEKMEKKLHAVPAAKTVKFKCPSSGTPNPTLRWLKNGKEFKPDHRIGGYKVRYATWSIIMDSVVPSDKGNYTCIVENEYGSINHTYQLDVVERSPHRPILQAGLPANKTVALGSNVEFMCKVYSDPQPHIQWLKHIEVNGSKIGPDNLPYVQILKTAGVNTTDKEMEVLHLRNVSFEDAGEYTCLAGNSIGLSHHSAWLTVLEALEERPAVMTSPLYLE
- MEASUREMENT_DESCRIPTION: BLI Octet RED96, antibody on anti-hIgG Fc tip
REPORTED_PROPERTY: koff (s⁻¹)
Numeric only. Scale: s⁻¹

Ab19 (antibody, human IgG2, kappa, V domains shown, format in the assays not spelled out) VH: EVQLLESGGGVVQPGRSLRLSCAASGFTFSSYAMHWVRQAPGKGLEWVAVISYDGSNKYYADSVKGRFTISRDNSKNTLSLQMNSLRVEDTAIYYCVRGAGRGFTLGPDGFDIWGQGTMVTVSS VL: DIVMTQTPLSLSVTPGQPASISCKSSRSLLHSDGKTYVYWYVQKSGQPPQLLIYELSNRFSGVPDRFSGSGSRTDFTLKISRVEAEDVGVYYCMQYIEAPLTFGGGTKVEIKR	0.000967
Ab90 (antibody, human IgG2, kappa, V domains shown, format in the assays not spelled out) VH: EVQLLESGGGVVQPGRSLRLSCAASGFTFSSYAMHWVRQAPGKGLEWVAVISYDGSNKYYADSVKGRFTISRDNSKNTLSLQMNSLRVEDTAIYYCVRGAGRGYPYGPDGFDIWGQGTMVTVSS VL: DIVMTQTPLSLSVTPGQPASISCTSSRSLLHSDGKTYVYWYVQKSGQPPQLLIYELSNRFSGVPDRFSGSGSRTDFTLKISRVEAEDVGVYYCMQYVEVPLTFGGGTKVEIKR	0.00116
Ab60 (antibody, human IgG2, kappa, V domains shown, format in the assays not spelled out) VH: EVQLLESGGGVVQPGRSLRLSCAASGFDFAGYAMHWVRQAPGKGLEWVAVISYDGSNKYYADSVKGRFTISRDNSKNTLSLQMNSLRVEDTAIYYCVRGAGRGLTYGPDGFDIWGQGTMVTVSS VL: DIVMTQTPLSLSVTPGQPASISCTSSRSLLHSDGKTYVYWYVQKSGQPPQLLIYELSNRFSGVPDRFSGSGSRTDFTLKISRVEAEDVGVYYCMQYIEAPLTFGGGTKVEIKR	0.00165

koff lookup needed for Vk5 combined with the VH of Ab15 (antibody, V domains shown, captured on anti-human IgG Fc tips) VH: EVQLLESGGGVVQPGRSLRLSCAASGFTFSSYAMHWVRQAPGKGLEWVAVISYDGSNKYYADSVKGRFTISRDNSKNTLSLQMNSLRVEDTAIYYCVRGAGRGYTYGPDGFDIWGQGTMVTVSS VL: DIVMTQTPLSLSVTPGQPASISCRSSRSLLHSDGKTYVYWYLQKPGQPPQLLIYELSNRFSGVPDRFSGSGSGTDFTLKISRVEAEDVGVYYCMQYIEAPLTFGGGTKVEIK , thanks. 0.000215

# query: koff of entry Vk1 combined with the VH of Ab15 (antibody, V domains shown, captured on anti-human IgG Fc tips) VH: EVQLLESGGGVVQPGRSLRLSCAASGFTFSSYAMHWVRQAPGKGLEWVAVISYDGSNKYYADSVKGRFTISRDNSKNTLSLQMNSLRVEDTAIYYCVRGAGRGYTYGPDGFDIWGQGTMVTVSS VL: DIVMTQTPLSLSVTPGQPASISCTSSRSLLHSDGKTYLYWYLQKPGQPPQLLIYELSNRFSGVPDRFSGSGSRTDFTLKISRVEAEDVGVYYCMQYIEAPLTFGGGTKVEIK 0.000243

What does the record list as koff for Vk3 combined with the VH of Ab15 (antibody, V domains shown, captured on anti-human IgG Fc tips) VH: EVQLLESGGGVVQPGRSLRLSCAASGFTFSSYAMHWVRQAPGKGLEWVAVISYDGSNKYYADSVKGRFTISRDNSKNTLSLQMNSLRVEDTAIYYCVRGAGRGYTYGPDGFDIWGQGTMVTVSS VL: DIVMTQTPLSLSVTPGQPASISCTSSRSLLHSDGKTYVYWYLQKSGQPPQLLIYELSNRFSGVPDRFSGSGSRTDFTLKISRVEAEDVGVYYCMQYIEAPLTFGGGTKVEIK ? 0.000262

Endpoint output: koff of Vk6 combined with the VH of Ab15 (antibody, V domains shown, captured on anti-human IgG Fc tips) VH: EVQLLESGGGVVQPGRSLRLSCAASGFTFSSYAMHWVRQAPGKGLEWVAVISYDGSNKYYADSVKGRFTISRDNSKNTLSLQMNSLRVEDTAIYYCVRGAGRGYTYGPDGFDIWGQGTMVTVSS VL: DIVMTQTPLSLSVTPGQPASISCKSSQSLLHSDGKTYLYWYLQKPGQPPQLLIYELSNRFSGVPDRFSGSGSGTDFTLKISRVEAEDVGVYYCMQYIEAPLTFGGGTKVEIK . Value? 0.000344

For the binder shown here, Vk7 combined with the VH of Ab15 (antibody, V domains shown, captured on anti-human IgG Fc tips) VH: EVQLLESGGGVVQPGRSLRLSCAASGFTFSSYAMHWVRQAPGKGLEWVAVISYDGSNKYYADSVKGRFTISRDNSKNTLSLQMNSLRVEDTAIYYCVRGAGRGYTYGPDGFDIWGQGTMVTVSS VL: DIVMTQSPLSLPVTPGEPASISCKSSQSLLHSDGKTYLYWYLQKPGQPPQLLIYELSNRFSGVPDRFSGSGSGTDFTLKISRVEAEDVGVYYCMQYIEAPLTFGGGTKVEIK , give the reported koff. 0.000336

So what does the record say about koff for Vh2 combined with the VL of Ab15 (antibody, V domains shown, captured on anti-human IgG Fc tips) VH: EVQLVESGGGVVQPGRSLRLSCAASGFTFSSYAMHWVRQAPGKGLEWVAVISYDGSNKYYADSVKGRFTISRDNSKNTLYLQMNSLRAEDTAVYYCARGAGRGYTYGPDGFDIWGQGTMVTVSS VL: DIVMTQTPLSLSVTPGQPASISCTSSRSLLHSDGKTYVYWYVQKSGQPPQLLIYELSNRFSGVPDRFSGSGSRTDFTLKISRVEAEDVGVYYCMQYIEAPLTFGGGTKVEIK ? 0.000269

Could you share which koff value was measured for Vk12 combined with the VH of Ab15 (antibody, V domains shown, captured on anti-human IgG Fc tips) VH: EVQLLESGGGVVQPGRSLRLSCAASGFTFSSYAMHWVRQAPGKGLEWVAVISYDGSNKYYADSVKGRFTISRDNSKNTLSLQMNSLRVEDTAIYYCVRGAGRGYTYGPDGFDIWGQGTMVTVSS VL: DIVMTQSPLSLPVTPGEPASISCTSSRSLLHSDGKTYVYWYLQKPGQSPQLLIYELSNRFSGVPDRFSGSGSGTDFTLKISRVEAEDVGVYYCMQYIEAPLTFGGGTKVEIK ? 0.000345
